- ASSAY TARGET: Avi-KRAS G12V (1-169) GppNHp/RAF1 RBD-3xFLAG (52-151) (Homo sapiens, UniProt P01116, G12V)
- Construct: Avi-KRAS G12V (1-169)
- Sequence (P01116 1-169 isoform P01116-2 G12V): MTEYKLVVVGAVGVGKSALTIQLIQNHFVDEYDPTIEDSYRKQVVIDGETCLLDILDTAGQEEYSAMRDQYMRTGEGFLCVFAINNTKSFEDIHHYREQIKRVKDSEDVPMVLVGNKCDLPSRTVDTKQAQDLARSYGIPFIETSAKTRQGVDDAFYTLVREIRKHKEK
- PROTOCOL DETAILS: Raf1-KRAS G12V-GppNHP disruption HTRF assay (Biological Example 1)
- Type: binding
- TEST PARAMETERS: KRAS G12V-GppNHp/RAF1 RBD HTRF

[
  {
    "COMPOUND": "CCN(c1nc(OC[C@@]23CCCN2C[C@H](F)C3)nc2c(F)c(-c3ccc(F)c4sc(N)c(C#N)c34)c(C(F)(F)F)cc12)[C@H]1CCN(C(=O)C(C)C)C1 (single isomer, unassigned) [Compound 469]",
    "IC50": "< 0.1 µM"
  },
  {
    "COMPOUND": "CCN(c1nc(OC[C@@]23CCCN2C[C@H](F)C3)nc2c(F)c(-c3ccc(F)c4sc(N)c(C#N)c34)c(C(F)(F)F)cc12)[C@@H]1CCN(C(C)=O)[C@@H]1C",
    "IC50": "0.1 to 1 µM"
  },
  {
    "COMPOUND": "C[C@@H]1Cn2nncc2CN1c1nc(OC[C@@]23CCCN2C[C@H](F)C3)nc2c(F)c(-c3ccc(F)c4sc(N)c(C#N)c34)c(C(F)(F)F)cc12 (atropisomer, axis not shown)",
    "IC50": "0.1 to 1 µM"
  },
  {
    "COMPOUND": "CC(=O)N1C[C@@H](C)[C@H](N(C)c2nc(OC[C@@]34CCCN3C[C@H](F)C4)nc3c(F)c(-c4ccc(F)c5sc(N)c(C#N)c45)c(C(F)(F)F)cc23)C1",
    "IC50": "0.1 to 1 µM"
  },
  {
    "COMPOUND": "N#Cc1c(N)sc2c(F)ccc(-c3c(C(F)(F)F)cc4c(N5CC6CC(C5)O6)nc(OC[C@@]56CCCN5C[C@@]5(CC5(F)F)C6)nc4c3F)c12",
    "IC50": "1 to 10 µM"
  }
]

* * *

Each item that follows carries a reported IC50.
- ASSAY TARGET: Avi-KRAS WT (2-169) GTP/RAF1 RBD-3xFLAG (51-131) (Homo sapiens)
- Construct: Avi-KRAS WT (2-169)
- Sequence (P01116 2-169 isoform P01116-2): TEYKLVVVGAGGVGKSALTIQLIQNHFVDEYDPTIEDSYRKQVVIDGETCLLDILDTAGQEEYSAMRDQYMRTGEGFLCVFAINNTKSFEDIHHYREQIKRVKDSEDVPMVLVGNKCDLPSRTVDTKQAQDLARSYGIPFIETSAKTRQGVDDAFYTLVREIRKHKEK
- PROTOCOL DETAILS: Raf1-KRAS WT-GTP disruption HTRF assay (Biological Example 3)
- Assay type: binding
- TEST PARAMETERS: KRAS WT, GTP-loaded
ENDPOINT NAME: IC50

[
  {
    "COMPOUND": "CCN(c1nc(OC[C@@]23CCCN2C[C@H](F)C3)nc2c(F)c(-c3ccc(F)c4sc(N)c(C#N)c34)c(C(F)(F)F)cc12)[C@H]1CC(=O)N2CCC[C@H]12 (atropisomer, axis not shown) [Compound 880]",
    "ENDPOINT NAME": "IC50",
    "RESULT": "100 to 1000 nM"
  },
  {
    "COMPOUND": "CCN(c1nc(OC[C@]23CCCN2C[C@H](F)C3)nc2c(F)c(-c3ccc(F)c4sc(N)c(C#N)c34)c(C(F)(F)F)cc12)[C@H]1CCN(C(=O)C(C)C)C1 [Compound 705]",
    "ENDPOINT NAME": "IC50",
    "RESULT": "100 to 1000 nM"
  },
  {
    "COMPOUND": "CCN(c1nc(OC[C@@]23CCCN2C[C@H](F)C3)nc2c(F)c(-c3ccc(F)c4sc(N)c(C#N)c34)c(C(F)(F)F)cc12)[C@H]1C[C@H]2CCCC(=O)N2C1 (atropisomer, axis not shown; (aR)) [Compound 662]",
    "ENDPOINT NAME": "IC50",
    "RESULT": "100 to 1000 nM"
  }
]

* * *

Each item that follows carries a reported IC50.
- ASSAY TARGET: Avi-KRAS G12D (2-169) GTP/RAF1 RBD-3xFLAG (51-131) (Homo sapiens, UniProt P01116, G12D)
- Construct: Avi-KRAS G12D (2-169)
- Sequence (P01116 2-169 isoform P01116-2 G12D): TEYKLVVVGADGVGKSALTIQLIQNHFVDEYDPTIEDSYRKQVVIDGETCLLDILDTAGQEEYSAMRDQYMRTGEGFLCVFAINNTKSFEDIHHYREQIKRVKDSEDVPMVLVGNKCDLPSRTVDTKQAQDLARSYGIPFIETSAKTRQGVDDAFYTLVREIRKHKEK
- PROTOCOL DETAILS: Raf1-KRAS G12D-GTP disruption HTRF assay (Biological Example 3)
- Type: binding
- TEST PARAMETERS: KRAS G12D, GTP-loaded
ENDPOINT NAME: IC50

[
  {
    "COMPOUND": "CCN(c1nc(OC[C@@]23CCCN2C[C@H](F)C3)nc2c(F)c(-c3ccc(F)c4sc(N)c(C#N)c34)c(C(F)(F)F)cc12)[C@H]1C[C@@H]2CCCC(=O)N2C1 (atropisomer, axis not shown)",
    "ENDPOINT NAME": "IC50",
    "RESULT": "0.1 to 1 µM"
  },
  {
    "COMPOUND": "CCN(c1nc(OC[C@@]23CCCN2C[C@H](F)C3)nc2c(F)c(-c3ccc(F)c4sc(N)c(C#N)c34)c(C(F)(F)F)cc12)[C@H]1C[C@H](C)N(C(=O)c2coc(C)n2)C1 (atropisomer, axis not shown)",
    "ENDPOINT NAME": "IC50",
    "RESULT": "≤ 0.1 µM"
  },
  {
    "COMPOUND": "CC(=O)N1C[C@H](N(C)c2nc(OC[C@@]34CCCN3C[C@H](F)C4)nc3c(F)c(-c4ccc(F)c5sc(N)c(C#N)c45)c(C(F)(F)F)cc23)C[C@@H]1C",
    "ENDPOINT NAME": "IC50",
    "RESULT": "1 to 10 µM"
  },
  {
    "COMPOUND": "N#Cc1c(N)sc2c(F)ccc(-c3c(C(F)(F)F)cc4c(N5C[C@H]6C[C@@H]5CO6)nc(OC[C@@]56CCCN5C[C@H](F)C6)nc4c3F)c12 [Compound 253]",
    "ENDPOINT NAME": "IC50",
    "RESULT": "0.1 to 1 µM"
  },
  {
    "COMPOUND": "CN(Cc1cccnn1)c1nc(OC[C@@]23CCCN2C[C@H](F)C3)nc2c(F)c(-c3ccc(F)c4sc(N)c(C#N)c34)c(C(F)(F)F)cc12 (atropisomer, axis not shown)",
    "ENDPOINT NAME": "IC50",
    "RESULT": "0.1 to 1 µM"
  }
]

* * *

- ASSAY TARGET: Avi-KRAS G12D (2-169) GTP/RAF1 RBD-3xFLAG (51-131) (Homo sapiens, UniProt P01116, G12D)
- Construct: Avi-KRAS G12D (2-169)
- PROTOCOL DETAILS: Raf1-KRAS G12D-GTP disruption HTRF assay (Biological Example 3)
- Format: binding
- TEST PARAMETERS: KRAS G12D, GTP-loaded
pIC50: −log10 of the molar value.
ENDPOINT NAME: pIC50

[
  {
    "COMPOUND": "CCN(c1nc(OC[C@]23CCCN2C[C@H](F)C3)nc2c(F)c(-c3ccc(F)c4sc(N)c(C#N)c34)c(C(F)(F)F)cc12)[C@H]1CCN(C(=O)OC)C1 (atropisomer, axis not shown) [Compound 955]",
    "ASSAY TARGET": "Avi-KRAS G12D (2-169) GTP/RAF1 RBD-3xFLAG (51-131) (Homo sapiens, UniProt P01116, G12D)",
    "RESULT": "5.00 to 6.00"
  },
  {
    "COMPOUND": "CCN(c1nc(OC[C@@]23CCCN2C[C@H](F)C3)nc2c(F)c(-c3ccc(F)c4sc(N)c(C#N)c34)c(C(F)(F)F)cc12)[C@H]1CCN(C(=O)C2C[C@@H]2F)C1 (some centres unmarked)",
    "ASSAY TARGET": "Avi-KRAS G12D (2-169) GTP/RAF1 RBD-3xFLAG (51-131) (Homo sapiens, UniProt P01116, G12D)",
    "RESULT": "≥ 7.00"
  },
  {
    "COMPOUND": "CN(Cc1ncoc1C#N)c1nc(OC[C@@]23CCCN2C[C@H](F)C3)nc2c(F)c(-c3ccc(F)c4sc(N)c(C#N)c34)c(C(F)(F)F)cc12 (atropisomer, axis not shown)",
    "ASSAY TARGET": "Avi-KRAS G12D (2-169) GTP/RAF1 RBD-3xFLAG (51-131) (Homo sapiens, UniProt P01116, G12D)",
    "RESULT": "6.00 to 7.00"
  },
  {
    "COMPOUND": "CCN(c1nc(OCC23CCCN2CC(F)C3)nc2c(F)c(-c3ccc(F)c4sc(N)c(C#N)c34)c(C(F)(F)F)cc12)C1CCN(C(=O)c2nc(C)ns2)C1 (centres unmarked)",
    "ASSAY TARGET": "Avi-KRAS G12D (2-169) GTP/RAF1 RBD-3xFLAG (51-131) (Homo sapiens, UniProt P01116, G12D)",
    "RESULT": "6.00 to 7.00"
  },
  {
    "COMPOUND": "CCN(c1nc(OC[C@@]23CCCN2C[C@H](F)C3)nc2c(F)c(-c3ccc(F)c4sc(N)c(C#N)c34)c(C(F)(F)F)cc12)[C@H]1CCN(C(=O)C2C[C@@H]2F)[C@@H]1C (some centres unmarked)",
    "ASSAY TARGET": "Avi-KRAS G12D (2-169) GTP/RAF1 RBD-3xFLAG (51-131) (Homo sapiens, UniProt P01116, G12D)",
    "RESULT": "6.00 to 7.00"
  }
]
